Biological target: T1, MUC1 on MUC1+ human cancer cell lines and tumor tissue (abnormal, e.g. hypoglycosylated, tumor MUC1) (human, UniProt P15941 24-1255)
T1 construct: the MUC1 of each cell line or tissue (number of repeats, glycoform) is not specified; The cell line or tissue is named under assay; also called MUC1 on HPAF, MCF-7, BT-20, SKBR-3, PANC-1, MS+MUC1 cells; MUC1 on colon and pancreatic tumor samples
Assay: flow cytometry, MS+MUC1 cells
experimental readout: percentage of APC+ stained cells

[[record]]
binder = "M3 (antibody, human IgG1, lambda, V domains shown, Human IgG) VH: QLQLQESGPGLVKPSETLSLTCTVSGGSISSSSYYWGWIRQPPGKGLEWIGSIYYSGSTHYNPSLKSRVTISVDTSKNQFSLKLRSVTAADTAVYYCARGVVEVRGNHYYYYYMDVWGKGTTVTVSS VL: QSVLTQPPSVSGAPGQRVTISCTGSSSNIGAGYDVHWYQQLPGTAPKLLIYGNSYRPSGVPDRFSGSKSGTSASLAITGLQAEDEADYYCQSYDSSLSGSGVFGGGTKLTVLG"
experimental_readout = "percentage of APC+ stained cells"
result_value = "22%"

[[record]]
binder = "M21 (antibody, human IgG1, kappa, V domains shown, Human IgG) VH: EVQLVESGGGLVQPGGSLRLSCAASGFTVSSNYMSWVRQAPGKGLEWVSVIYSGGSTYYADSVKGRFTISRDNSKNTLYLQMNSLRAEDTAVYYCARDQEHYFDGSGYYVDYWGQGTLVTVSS VL: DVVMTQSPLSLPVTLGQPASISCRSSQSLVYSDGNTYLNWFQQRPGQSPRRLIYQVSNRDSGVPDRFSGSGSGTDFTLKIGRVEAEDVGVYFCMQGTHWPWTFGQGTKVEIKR"
experimental_readout = "percentage of APC+ stained cells"
result_value = "4.41%"

[[record]]
binder = "M20 (antibody, human IgG1, kappa, V domains shown, Human IgG) VH: EVQLVESGGGLVQPGGSLRLSCAASGFTFSSYWMHWVRQAPGKGLVWVSHINSDGSSTSYADSVKGRFTISRDNAKNTLYLQMNSLRAEDTAVYYCARELADWGQGTLVTVSS VL: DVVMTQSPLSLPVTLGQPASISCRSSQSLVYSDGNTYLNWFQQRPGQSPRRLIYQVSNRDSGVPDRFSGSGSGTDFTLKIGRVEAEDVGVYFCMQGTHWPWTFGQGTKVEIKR"
experimental_readout = "percentage of APC+ stained cells"
result_value = "6.32%"

[[record]]
binder = "M7 (antibody, human IgG1, kappa, V domains shown, Human IgG) VH: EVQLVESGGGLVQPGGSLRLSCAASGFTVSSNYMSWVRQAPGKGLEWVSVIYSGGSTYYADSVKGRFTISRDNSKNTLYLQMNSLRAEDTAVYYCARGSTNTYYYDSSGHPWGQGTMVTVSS VL: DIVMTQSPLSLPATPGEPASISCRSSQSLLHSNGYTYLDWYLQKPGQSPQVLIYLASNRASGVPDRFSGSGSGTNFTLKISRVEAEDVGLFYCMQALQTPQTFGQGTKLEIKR"
experimental_readout = "percentage of APC+ stained cells"
result_value = "22.4%"

[[record]]
binder = "M22 (antibody, human IgG1, kappa, V domains shown, Human IgG) VH: EVQLVESGGGLVQPGGSLRLSCAASGFTVSSNYMSWVRQAPGKGLEWVSVIYSGGTTYYADSVKGRFTISRHNSKNTLYLQMNSLRAEDTAVYYCARDHDPDYGGYYMDVWGKGTTVTVSS VL: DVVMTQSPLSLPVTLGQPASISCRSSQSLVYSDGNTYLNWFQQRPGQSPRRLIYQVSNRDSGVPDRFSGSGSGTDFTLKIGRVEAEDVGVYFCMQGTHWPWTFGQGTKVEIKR"
experimental_readout = "percentage of APC+ stained cells"
result_value = "5.78%"

